Origin of the recorded values: the RNAGym collection of RNA variant scans (doi:10.1126/science.aae0568)

B1: tRNA (parent)
chain: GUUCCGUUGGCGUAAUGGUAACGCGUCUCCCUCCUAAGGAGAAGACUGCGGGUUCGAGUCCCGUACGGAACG

Variants of: B1
test details: yeast fitness relative to wild type (ratio to wild type); higher = fitter; tRNA-Arg(CCU), competitive growth, 37 C, YPD
This sample holds only a part of the variants without activity.
Given measured yeast fitness, output class 1 if it is greater than or equal to 0.6 and class 0 if not.

GUUUCGUUGGCGUAAUGGUAACGCCUCUCCCUCCUAAGGAGAAGCAUGCGGGUUCGAGUCCCGUACGGAACG
class 1
GUUCCGUUGGCGUAAUGGUAACGCGUCUCGCUGCUAAGGAGAAGACUGCGGGUUCGAGUCCCGUACGGAUCG
class 0
GCUCCGUUGGCGUAAUGGUAACGCGUUUCCCUCCUAAGGAGAAGACUGCGGGUUCGAGUCCCGUACGGAACG
class 1
GUUCCAUUGGCGUAAUGGUAACGCGUGUCCGUCCUAAGGAGAAGACUGCAGGUUCGAGUCCCGUACGGAUCG
class 0
GUUCCGUUGGCGUAAUGGAAACGCGUCUCGCUCCUAAGCAGAAGACUGCGGGCUAGAGUCCCGUACGGAACG
class 0
GUUCCGUUGGCGUAAUGGUAACGCGUCUCGCUCCUAAGGAGAAGACUGCGGGUUCGAAUCCCGUACGGUACG
class 0
GUUCUGUUGGCGUGAUGGUAACGUGUCUCCCUCCUAAGGUGAAGACUGCGGGUUGGAGUCCCGUACGGAACG
class 0
GUUCCGUUGGCGUAAUGGAAACGUGUCUCCCUCCUAAGGAGAAGACUGCGGGUUCGAGUCCCGUACGGUACG
class 1

Now examine the next entry.
Query string: Identify whether the reported yeast fitness of the following variant is 0.6 or greater: GUUCCGUUGGCGUGAUGGUAACGCAUCUCCCUCCUAAGGAGAACACUGCGGGUUCGAGUCCCGUACGGAACG
Result string: class 1
